Assay Target: Aldehyde dehydrogenase 1A1 (Homo sapiens)
Test Method Notes: qHTS Assay for Inhibitors of Aldehyde Dehydrogenase 1 (ALDH1A1)
Condition Summary: Purified ALDH1A1, NADH fluorescence, propionaldehyde substrate; series mostly up to 75.3 µM
Hit rate of the full screen: of about 220,000 compounds, about 16,000 (7.3%) were called active. Another 25% or so got no clear call; they are omitted. Calls follow the shape of the dose curve; as a rule, active = well fitted inhibition curve with a large enough effect (not every such curve was filed as active); inconclusive = small, poorly fitted or top-dose-only effect, or another doubt; inactive = no such curve, though single readings can be large or run the other way. Only a selection was taken, and actives are over-represented in it overall.
Possible outcomes: active, inactive

In [3]: df
Out[3]:
                                    compound  label_class
 0  CCCCCOC(=O)C1=C(C)Nc2nnnn2C1c1ccc(OC)c(OC)c1OC (centres undefined)     inactive
 1  O=C1C(=O)N(CCN2CCOCC2)C(c2ccccn2)/C1=C(/O)c1ccc(Cl)cc1 (centres undefined)       active
 2        Cn1cnnc1SCC(=O)Nc1ccc(N2CCOCC2)cc1     inactive
 3  Cc1ccc(NC(=O)CC2C(=O)N(Cc3ccccc3)C(=S)N2NC(=O)c2cccc(F)c2)c(C)c1 (centres undefined)     inactive
 4    O=C(Nc1ccc(Cl)cc1)Nc1ccc(Oc2cccnc2)nc1     inactive
 5  C/C(=N/OC(=O)c1c(-c2c(F)cccc2Cl)noc1C)c1cnccn1     inactive
 6  CC(Sc1nncn1C)C(=O)Nc1cc(C(F)(F)F)ccc1N1CCOCC1 (centres undefined)     inactive
 7  CC(=O)c1ccc2c(c1)OCCOCCOc1ccc(C(C)=O)cc1OCCOCCO2     inactive
 8     Cc1ccc(NC(=O)CN2CCCCC2)c2c1CC(C)(C)O2     inactive
 9  Cc1ccc(/C=N/NC(=O)COc2ccccc2-c2ccccc2)cc1     inactive
10  O=C(CCS(=O)(=O)c1ccccc1Cl)Nc1ccc(S(=O)(=O)Nc2ncccn2)cc1     inactive
11  N=C1C(c2nc3ccccc3s2)=C(O)CN1NC(=O)c1ccc([N+](=O)[O-])cc1       active
12      CSc1nc2nc(-c3cccc(C(F)(F)F)c3)ccn2n1     inactive
13          O=[N+]([O-])c1ccccc1NCc1ccccc1Cl     inactive
14  O=C(COc1cccc(F)c1)Oc1ccc(C(=O)c2ccccc2)cc1       active
15  COc1ccc2[nH]c(C)c(CCN(Cc3cccs3)C(=S)Nc3ccccc3OC)c2c1       active
16  Cc1ccc2nsnc2c1S(=O)(=O)N1CCCC1C(=O)O (centres undefined)     inactive
17  O=C(Nn1c(-c2ccccc2)nc2ccccc2c1=O)c1ccc([N+](=O)[O-])cc1     inactive
18  CCOc1ccc(S(=O)(=O)N(CC(=O)NCC(F)(F)F)Cc2ccco2)cc1     inactive
19       Cc1ccc(NC(=O)C2(N3CCC3=O)CCCCC2)cc1     inactive
20  Cc1ccc(C2=N/C(=C\c3ccc(OS(=O)(=O)c4ccc(C)cc4)cc3)C(=O)O2)cc1       active
21  CCN(CC)CCN1C(=O)C(=O)/C(=C(/O)c2ccccc2)C1c1ccccc1F (centres undefined)     inactive
22       Cc1cc(CO)nn1-c1ccc([N+](=O)[O-])cc1     inactive
23  CC1Cc2cc(/C(O)=C3\C(=O)C(=O)N(CCN4CCOCC4)C3c3ccccc3F)ccc2O1 (centres undefined)     inactive
24          COc1ccc(NC(=S)NCCN2CCC(C)CC2)cc1     inactive
25  CCOC(=O)Cn1c(=O)oc2cc(S(=O)(=O)N(C)Cc3ccco3)ccc21       active
26  Cc1ccc(S(=O)(=O)NC2(C(F)(F)F)NC(=O)N(CCc3ccccc3)C2=O)cc1 (centres undefined)     inactive
27  CCOC(=O)Cn1c(=O)oc2cc(S(=O)(=O)NCC3CCCO3)ccc21 (centres undefined)     inactive
28     Cc1cc(NC(=O)Nc2ccccc2[N+](=O)[O-])no1     inactive
29  COc1ccc(NC(=S)NCC2CCN(c3ccc(OC)cc3)C2)cc1 (centres undefined)       active
30  CCC(C)NC(=O)c1nn(C)c(=O)c2ccccc12 (centres undefined)     inactive
31  CC1=C(C(N)=O)C(c2sccc2C)n2nnnc2N1 (centres undefined)       active
32               c1ccc(CN=C2Nc3ccccc3CS2)nc1     inactive
33          COc1ccnc(Oc2ccccc2)c1-c1ncn[nH]1     inactive
34  CCOc1ccc(CN2CCN(Cc3ccc(C)o3)CC2CCO)cc1 (centres undefined)     inactive
35  O=C(CSc1nnc(-c2ccco2)n1CC1CCCO1)c1ccccc1 (centres undefined)       active
36  COc1ccc(OCC(=O)Nc2ccc(N3CCC(C)CC3)cc2)cc1     inactive
37  CCC(CC)C(=O)Nc1ccc(S(=O)(=O)Nc2nccs2)cc1     inactive
38    O=[N+]([O-])c1ccc(NCCCN2CCOCC2)c(Cl)c1     inactive
39  CCN(C(=O)Cc1nc(N)n[nH]1)C1(C(=O)Nc2ccccc2)CCCCC1     inactive
40               Fc1cccc2ncnc(OCc3ccccc3)c12     inactive
41  CC(=O)C1=C(C)NC(C)=C(C(C)=O)C1c1cn(-c2ccccc2)nc1-c1cccs1     inactive
42  CC(C)C(=O)Nc1cccc(NC(=O)c2ccc([N+](=O)[O-])cc2Cl)c1     inactive
43  COc1cccc(NC(=S)N(CCc2c(C)[nH]c3ccccc23)Cc2ccco2)c1     inactive
